Kindly supply the reported Av. Resp. values for the records listed here.
Molecular target: humanized development candidate monoclonal antibody IgG4 (hIgG4)
Assay: Gyrolab, mAb as capture, hIgG4 5000 ng/ml
API note: the answer field is a bare number with no unit suffix.

Please supply the value of reported Av. Resp. for the item rabbit anti-human IgG monoclonal antibody clone 11G5 (antibody, V domains shown) VH: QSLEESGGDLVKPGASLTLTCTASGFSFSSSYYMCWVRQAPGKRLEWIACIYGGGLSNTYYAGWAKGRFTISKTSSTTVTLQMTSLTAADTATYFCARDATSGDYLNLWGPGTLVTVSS VL: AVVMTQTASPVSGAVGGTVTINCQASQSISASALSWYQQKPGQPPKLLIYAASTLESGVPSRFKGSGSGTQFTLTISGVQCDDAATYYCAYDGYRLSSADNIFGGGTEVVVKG 468

Return the recorded Av. Resp. value; entry: rabbit anti-human IgG monoclonal antibody clone 19B1 (antibody, V domains shown) VH: QEQLVESGGGLVQPEGSLTLTCTASGFSFSDSYYMCWVRQAPGKGLEWIACIYGGTITNTYYASWAKGRFTISKTSSTTVTLQMTSLTAADTATYFCARDLGAAGDAYNLWGPGTLVTVSS VL: ASDMTQTPASVSEPVGGTVTIKCQASENIYSSLAWYQQKPGQPPKLLIYDASNLASGVPSRFSGSGSGTEFTLTISDLECADAATYYCQCTYRSSSSSYAFGGGTEVVVKG 246

Assign Av. Resp. to the following record: rabbit anti-human IgG monoclonal antibody clone 2C5 (antibody, V domains shown) VH: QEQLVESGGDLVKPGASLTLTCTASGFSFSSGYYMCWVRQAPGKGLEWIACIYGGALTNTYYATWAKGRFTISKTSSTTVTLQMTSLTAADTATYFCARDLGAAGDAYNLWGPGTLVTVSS VL: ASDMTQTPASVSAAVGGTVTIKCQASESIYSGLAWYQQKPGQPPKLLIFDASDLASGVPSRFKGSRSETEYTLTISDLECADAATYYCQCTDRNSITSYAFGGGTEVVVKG 317
